B1: tRNA (parent)
chain: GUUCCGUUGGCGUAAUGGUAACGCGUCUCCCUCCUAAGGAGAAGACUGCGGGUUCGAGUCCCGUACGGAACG

- Variants of: B1
- Test method notes: yeast fitness relative to wild type (ratio to wild type); higher = fitter; tRNA-Arg(CCU), competitive growth, 37 C, YPD
Fewer inactive variants are shown than the library holds.
Measured yeast fitness of individual entries
Measure name: yeast fitness

Residue change: C11U A42C A69U
Measure name: yeast fitness
Value qualifier: =
Numeric value: 0.773

Residue change: C24U A57G C60U G68C
Measure name: yeast fitness
Value qualifier: ≤
Numeric value: 0.5

Residue change: C27G A37G C66U
Measure name: yeast fitness
Value qualifier: =
Numeric value: 0.538

Residue change: A14G U19A C27G G44A C46G C55G C66A
Measure name: yeast fitness
Value qualifier: ≤
Numeric value: 0.5

Residue change: A43G U54C
Measure name: yeast fitness
Value qualifier: =
Numeric value: 0.905

Residue change: G6C A21U
Measure name: yeast fitness
Value qualifier: =
Numeric value: 0.673

Residue change: G9C U19A A20G C29U A37U C62U G67A A70C
Measure name: yeast fitness
Value qualifier: ≤
Numeric value: 0.5

Residue change: G6A A21C U47A C61A A70C
Measure name: yeast fitness
Value qualifier: ≤
Numeric value: 0.5

Residue change: C11U G25C C31U
Measure name: yeast fitness
Value qualifier: =
Numeric value: 0.679

Residue change: A43U U47A
Measure name: yeast fitness
Value qualifier: =
Numeric value: 0.799

Residue change: C33G C34U A65U
Measure name: yeast fitness
Value qualifier: =
Numeric value: 0.629

Residue change: A37C A45U G52C
Measure name: yeast fitness
Value qualifier: ≤
Numeric value: 0.5

Residue change: C34A A43C G67A
Measure name: yeast fitness
Value qualifier: =
Numeric value: 0.537

Residue change: U8A A15U C27G A36G A70C
Measure name: yeast fitness
Value qualifier: ≤
Numeric value: 0.5

Residue change: A20G C22G
Measure name: yeast fitness
Value qualifier: =
Numeric value: 0.952

Residue change: A15G A57G C62G C66U
Measure name: yeast fitness
Value qualifier: ≤
Numeric value: 0.5

Residue change: A15C G44C
Measure name: yeast fitness
Value qualifier: =
Numeric value: 0.684

Residue change: U26A G39A G41C U54C
Measure name: yeast fitness
Value qualifier: ≤
Numeric value: 0.5

Residue change: U8C C24U U26A
Measure name: yeast fitness
Value qualifier: =
Numeric value: 0.607

Residue change: G12C G25A C49U
Measure name: yeast fitness
Value qualifier: =
Numeric value: 0.67

Residue change: U2A A42U G67C
Measure name: yeast fitness
Value qualifier: ≤
Numeric value: 0.5

Residue change: U8A C30G C46A G63A
Measure name: yeast fitness
Value qualifier: ≤
Numeric value: 0.5
